- TEST_SYSTEM: T1, recombinant human IL-23R/Fc chimera (R&D Systems) (human, UniProt Q5VWK5 24-355)
- T1 construct: Bought; also called rhIL23RFc
- T1 sequence (looked up): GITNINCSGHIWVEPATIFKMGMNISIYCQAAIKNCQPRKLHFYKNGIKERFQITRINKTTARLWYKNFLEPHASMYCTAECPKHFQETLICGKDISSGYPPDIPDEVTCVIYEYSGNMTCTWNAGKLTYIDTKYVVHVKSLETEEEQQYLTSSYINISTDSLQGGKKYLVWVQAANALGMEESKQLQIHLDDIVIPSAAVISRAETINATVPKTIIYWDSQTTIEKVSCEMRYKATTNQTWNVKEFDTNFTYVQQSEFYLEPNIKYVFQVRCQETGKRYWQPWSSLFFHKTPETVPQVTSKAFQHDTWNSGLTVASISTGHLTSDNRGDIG
- PROCEDURE_TEXT: competition ELISA vs IL-23
Lab note - cut at 4 for Ratio IC50 to 056-53.H4E IC50: criterion met if strictly below, criterion not met if not.

Consider the following illustrative entries.
105-08-2C12 ATRIMER complex (designed binder, not shown: small tags and cut ends) EPPTQKPKKIVNAKKDVVNTKMFEELKSRLDTLAQEVALLKEQQALQTVCLKGTKVHMKCFLAFTQTKTFHEASEDCISRGGTLSTPQTGSENDALYEYLRQSVGNEAEIWLGLNGSQRTDTWVDMTGARIAYKNWETEITAQPDGGFGYFGENCAVLSGAANGKWFDKRCRDQLPYICQFGIV: criterion met
105-08-1A10 ATRIMER complex (designed binder, not shown: C-terminal tag: His/Myc (pANA4) or HA-StrepII (pANA10)) EPPTQKPKKIVNAKKDVVNTKMFEELKSRLDTLAQEVALLKEQQALQTVCLKGTKVHMKCFLAFTQTKTFHEASEDCISRGGTLSTPQTGSENDALYEYLRQSVGNEAEIWLGLNGSSITDTWVDMTGARIAYKNWETEITAQPDGGWGYFGENCAVLSGAANGKWFDKRCRDQLPYICQFGIV: criterion not met
105-08-2E12 ATRIMER complex (designed binder) EPPTQKPKKIVNAKKDVVNTKMFEELKSRLDTLAQEVALLKEQQALQTVCLKGTKVHMKCFLAFTQTKTFHEASEDCISRGGTLSTPQTGSENDALYEYLRQSVGNEAEIWLGLNGSGLTDTWVDMTGARIAYKNWETEITAQPDGGWGYFGENCAVLSGAANGKWFDKRCRDQLPYICQFGIV: criterion not met
105-08-1G12 ATRIMER complex (designed binder, Homotrimer (ATRIMER complex) of the one chain given.) EPPTQKPKKIVNAKKDVVNTKMFEELKSRLDTLAQEVALLKEQQALQTVCLKGTKVHMKCFLAFTQTKTFHEASEDCISRGGTLSTPQTGSENDALYEYLRQSVGNEAEIWLGLNGSLRTGTWVDMTGARIAYKNWETEITAQPDGGWGYFGENCAVLSGAANGKWFDKRCRDQLPYICQFGIV: criterion not met
105-08-2G7 ATRIMER complex (designed binder) EPPTQKPKKIVNAKKDVVNTKMFEELKSRLDTLAQEVALLKEQQALQTVCLKGTKVHMKCFLAFTQTKTFHEASEDCISRGGTLSTPQTGSENDALYEYLRQSVGNEAEIWLGLNGSPKTGTWVDMTGARIAYKNWETEITAQPDGGFGYFGENCAVLSGAANGKWFDKRCRDQLPYICQFGIV: criterion met
105-08-1D1 ATRIMER complex (designed binder, not shown: small tags and cut ends) EPPTQKPKKIVNAKKDVVNTKMFEELKSRLDTLAQEVALLKEQQALQTVCLKGTKVHMKCFLAFTQTKTFHEASEDCISRGGTLSTPQTGSENDALYEYLRQSVGNEAEIWLGLNGSALTDTWVDMTGARIAYKNWETEITAQPDGGWGYFGENCAVLSGAANGKWFDKRCRDQLPYICQFGIV: criterion met
105-08-1A4 ATRIMER complex (designed binder) EPPTQKPKKIVNAKKDVVNTKMFEELKSRLDTLAQEVALLKEQQALQTVCLKGTKVHMKCFLAFTQTKTFHEASEDCISRGGTLSTPQTGSENDALYEYLRQSVGNEAEIWLGLNGSAVTNTWVDMTGARIAYKNWETEITAQPDGGFGYFGENCAVLSGAANGKWFDKRCRDQLPYICQFGIV: criterion met

Please find the next binder below.
I wonder whether 105-20-1H1 ATRIMER complex (designed binder) EPPTQKPKKIVNAKKDVVNTKMFEELKSRLDTLAQEVALLKEQQALQTVCLKGTKVHMKCFLAFTQTKTFHEASEDCISRGGTLSTPQTGSENDALYEYLRQSVGNEAEIWLGLNGSPLTNTWVDMTGARIAYKNWETEITAQPDGGWGYFGENCAVLSGAANGKWFDKRCRDQLPYICQFGIV has Ratio IC50 to 056-53.H4E IC50 below 4. Can you tell?
criterion met
